# target-under-test: T1, corticotropin releasing factor 2 receptor
# T1 sequence (Q13324 whole entry, species assumed, looked up): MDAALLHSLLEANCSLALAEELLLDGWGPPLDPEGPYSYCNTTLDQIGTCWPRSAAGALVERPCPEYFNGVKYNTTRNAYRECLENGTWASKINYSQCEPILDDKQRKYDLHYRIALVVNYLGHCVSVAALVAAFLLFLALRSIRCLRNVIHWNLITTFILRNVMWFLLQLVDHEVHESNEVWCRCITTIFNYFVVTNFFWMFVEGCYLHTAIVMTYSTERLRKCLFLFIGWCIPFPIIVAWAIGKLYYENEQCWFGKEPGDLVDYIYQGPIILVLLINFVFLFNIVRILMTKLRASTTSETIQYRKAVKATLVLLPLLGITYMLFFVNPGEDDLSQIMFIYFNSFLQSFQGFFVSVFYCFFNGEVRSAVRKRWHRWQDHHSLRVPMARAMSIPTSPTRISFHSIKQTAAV
# protocol: cell-based or functional assay
Ends that are not written are not given here.
# True = CRF2R EC50 below 20 nM (exclusive); False = CRF2R EC50 at/above 20 nM

[[record]]
binder = "PSLSIDLPLLLLRTLLELEKTQSQRERAEQNAIIFASV-NH2 [SEQ ID NO 344]"
cat = "True"

[[record]]
binder = "ZGPPISIDLPIILLRKVIEIEKQEKEKQQAANNARLLARI (C-terminal amide) [SEQ ID NO 295]"
cat = "False"

[[record]]
binder = "ZGPPISIDLPLHLLRKMIEIEKQEKEKQQAANNALLLATI (C-terminal amide) [SEQ ID NO 241]"
cat = "True"

[[record]]
binder = "ZGPPISIDLPQILLRKVIEIEKQEKEKQQAANNRLLLDTI (C-terminal amide) [SEQ ID NO 293]"
cat = "False"

[[record]]
binder = "NDDPPISIDLPQYLLRNMIEMARIENEREQAGLNAKYLAEV-NH2 [SEQ ID NO 265]"
cat = "False"

[[record]]
binder = "ZGPPISIDLPIILLRKVIEIEKQEKEKQQAANNRLLLDTI (C-terminal amide) [SEQ ID NO 297]"
cat = "False"

[[record]]
binder = "ZGPPISIDLPFQLLRVLIEIEKQEKEKQQAANNALLLATI (C-terminal amide) [SEQ ID NO 361]"
cat = "True"

[[record]]
binder = "DNPSLSIDLPLLLLRTLLELEKTQSQRERAEQNAQIFAHV-NH2 [SEQ ID NO 324]"
cat = "True"


Would you kindly verify if CRF2R EC50 of ZGPPISIDLPFQLLRKVIEIEKQEKEKQQAANNARLLARI (C-terminal amide) [SEQ ID NO 279] is strictly less than 20 nM?
True

Request: ZGPPISIDVPYQLLRKVIEIEKQEKEKQQAANNARLLARI (C-terminal amide) [SEQ ID NO 375]
True

And the next one, DNPSLSIDLPLFLLRTLLELEKTQSQRERAEQNARIFDRV-NH2 [SEQ ID NO 336] ?
True

Here is the next binder: DNPSLSIDLPLILLRTLLELEKTQSQRERAEQNARIFARV-NH2 [SEQ ID NO 335]
False

Next: ZGPPISIDLPFWLLRKMIEIEKQEKEKQQAANNRLLLDTI (C-terminal amide) [SEQ ID NO 217]
True

ZGPPISIDLPIFLLRKMIEIEKQEKEKQQAANNARLLARI (C-terminal amide) [SEQ ID NO 282] , same question.
False
